target.or.system: PKC theta (Homo sapiens)
Construct: purchased Invitrogen 7101
Sequence (Q04759 whole entry): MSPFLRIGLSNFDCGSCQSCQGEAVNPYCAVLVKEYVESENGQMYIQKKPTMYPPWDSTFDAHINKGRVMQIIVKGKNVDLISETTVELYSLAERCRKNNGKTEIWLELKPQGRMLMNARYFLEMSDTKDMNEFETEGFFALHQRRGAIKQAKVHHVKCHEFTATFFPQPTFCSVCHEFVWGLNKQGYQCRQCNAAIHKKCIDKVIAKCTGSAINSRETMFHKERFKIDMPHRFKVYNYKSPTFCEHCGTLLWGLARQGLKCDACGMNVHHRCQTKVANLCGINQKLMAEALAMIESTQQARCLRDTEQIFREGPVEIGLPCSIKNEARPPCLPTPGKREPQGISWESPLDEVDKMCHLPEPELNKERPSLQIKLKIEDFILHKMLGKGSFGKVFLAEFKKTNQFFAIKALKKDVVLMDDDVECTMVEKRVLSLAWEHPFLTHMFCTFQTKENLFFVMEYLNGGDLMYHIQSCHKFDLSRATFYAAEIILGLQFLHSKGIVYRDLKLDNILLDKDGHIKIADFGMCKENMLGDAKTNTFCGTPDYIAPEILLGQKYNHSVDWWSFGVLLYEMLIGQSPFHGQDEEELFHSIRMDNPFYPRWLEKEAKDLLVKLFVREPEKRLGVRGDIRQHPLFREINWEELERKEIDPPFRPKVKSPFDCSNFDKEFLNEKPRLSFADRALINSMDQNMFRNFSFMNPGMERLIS
measurement.protocol: Fluorescence polarization (FP) PKC inhibition assay, Protein Kinase C Assay Kit, Red (Invitrogen)
Type: biochemical
assay.conditions: enzyme 20 ng/ml, ATP 2.5 μM, substrate […] 1 μM
pIC50: −log10 of the molar value.
measured.quantity: pIC50

Worked examples, 3 molecules total:
O=C(Nc1ccncc1)c1ccc(C2=NCCCN2)cc1 | 4.12
NC(c1ccc(C(=O)Nc2ccncc2)cc1)C1CCCCC1 (stereo not shown) | 5.11
CC(N)c1ccc(C(=O)Nc2ccncc2)s1 (racemic) | 5.05

[A] CC(N)c1ccc(C(=O)Nc2ccncc2)cc1 (stereo not shown)
[B] NC[C@H]1CC[C@H](C(=O)Nc2ccncc2)CC1
// which entry has the larger pIC50 value, A or B ? # respond with the chosen item's label A
(A: 5.65, B: 5.13)

---

target.or.system: PKC gamma (Homo sapiens)
Construct: purchased Invitrogen 9343
measurement.protocol: Fluorescence polarization (FP) PKC inhibition assay, Protein Kinase C Assay Kit, Red (Invitrogen)
Format: biochemical
assay.conditions: enzyme 20 ng/ml, ATP 2.5 μM, substrate […] 1 μM
Listed here are compounds together with their documented IC50.

What does the record list as IC50 for "NCCCCCC(=O)Nc1ccncc1" ? > 100 µM

---

target.or.system: PKC gamma (Homo sapiens, UniProt P05129)
Construct: purchased Invitrogen 9343
measurement.protocol: Fluorescence polarization (FP) PKC inhibition assay, Protein Kinase C Assay Kit, Red (Invitrogen)
Format: biochemical
assay.conditions: enzyme 20 ng/ml, ATP 2.5 μM, substrate […] 1 μM
measured.quantity: IC50

Worked examples, 4 molecules total:
NCc1ccc(-c2nc(-c3ccncc3)no2)cc1 [Compound 13] | > 100 µM
O=C(Nc1ccncc1)c1ccc(C2CCCCN2)cc1 (stereo not drawn) [Compound 31] | > 100 µM
NCc1ccc(NCc2ccncc2)cc1 [Compound 11] | > 100 µM
O=C(Nc1ccnc2[nH]ccc12)c1ccc(C2CCCCN2)cc1 (stereo not drawn) [Compound 44] | 30.7 µM

What does the record list as IC50 for CC(N)c1ccc(C(=O)Nc2ccnc3[nH]ccc23)cc1 (stereo not drawn) [Compound 41] ? 11.3 µM

What does the record list as IC50 for NCc1ccc(C(=O)Nc2ccncn2)cc1 [Compound 21] ? > 100 µM
